The reader will find reported Sleeping time values listed item by item below.
species on record: Mus musculus; experiment: Reduction of hexobarbital induced sleeping time in mice.; type: functional
Residues, ends and D or L forms follow the SMILES beside them.
Give the number; min is assumed, so skip it.

CC(C)C[C@H](NC(=O)[C@@H]1CNC(=O)N1)C(=O)N1CCC[C@H]1C(N)=O; 25.8
CC(C)C[C@H](NC(=O)[C@@H]1CSCN1)C(=O)N1CCC[C@H]1C(N)=O (HELM PEPTIDE1{[O=C([C@@H]1CSCN1)[*:2]].L.P.[am]}$$$$V2.0); 35

Request: I have this compound here, CCC[C@H](NC(=O)[C@@H]1CCC(=O)N1)C(=O)N1CSC[C@H]1C(N)=O (HELM PEPTIDE1{[Glp].[Nva].[O=C([C@@H]1CSCN1[*:1])[*:2]].[am]}$$$$V2.0) , and I need its recorded Sleeping time.
Response: 26.4

Request: // same read-out, input: CCC[C@H](NC(=O)[C@@H]1CCC(=O)N1)C(=O)N[C@@H](CC(C)C)C(N)=O (HELM PEPTIDE1{[Glp].[Nva].L.[am]}$$$$V2.0)
Response: 43
